For each record, write down the corresponding AUC.
System: Rattus norvegicus
MEASUREMENT_DESCRIPTION: AUC(0-6h) in rat at 10 mg/kg, po
EXPERIMENTAL_CONDITIONS: in vivo
In your response, the unit should come after the numeric value.

> print(dat)
                      smiles.representation      target.entity        result
1  CN(C)C(=O)N1CCC(=C(c2ccc(-c3cccc(C#N)c3)cc2)c2nc3cc(F)c(C(F)(F)F)cc3[nH]2)CC1  Rattus norvegicus  1290 ng·h/mL

Each of the following entries comes with a recorded value; kindly state AUC for each.
1. N#Cc1cccc(-c2ccc(C(=C3CCN(CC4CC4)CC3)c3nc4cc(Cl)c(Cl)cc4[nH]3)cc2)c1
2. CC(=O)N1CCC(=C(c2ccc(-c3cccc(C#N)c3)cc2)c2nc3cc(F)c(C(F)(F)F)cc3[nH]2)CC1

Key:
1. 6640 ng·h/mL
2. 5250 ng·h/mL

Exercise: Recorded AUC for `N#Cc1ccc(F)c(-c2ccc(C(=C3CCN(CC4CC4)CC3)c3nc4cc(C(F)(F)F)c(F)cc4[nH]3)cc2)c1` , please?
Key: 3000 ng·h/mL

###

Reported Ki, Melanin-concentrating hormone receptor 1 (Homo sapiens).
Give bare numbers, in nM.

Some solved entries appear below for comparison.
> print(dat)
                                   compound  readout.unit  readout.number
1  CN(C)S(=O)(=O)N1CCC(=C(c2ccc(-c3cccc(C#N)c3)cc2)c2nc3cc(F)c(C(F)(F)F)cc3[nH]2)CC1            nM              64
2  N#Cc1cccc(-c2ccc(C(=C3CCNCC3)c3nc4cc(C(F)(F)F)c(F)cc4[nH]3)cc2)c1            nM             3.6
3  N#Cc1cccc(-c2ccc(C(=C3CCN(CC4CC4)CC3)c3nc4cc(Cl)cc(Cl)c4[nH]3)cc2)c1            nM              87
4  CC(C)S(=O)(=O)N1CCC2(CC1)CC2(c1ccc(-c2cccc(C#N)c2)cc1)c1nc2cc(F)c(C(F)(F)F)cc2[nH]1 (stereo not drawn)            nM              67

Each of the following entries comes with a recorded value; kindly state Ki for each.
1. N#Cc1cccc(-c2ccc(C3(c4nc5cc(F)c(C(F)(F)F)cc5[nH]4)CC34CCN(CC(=O)O)CC4)cc2)c1 (stereo not drawn)
2. N#Cc1cccc(-c2ccc(C(=C3CCN(CC4CC4)CC3)c3nc4cc(F)c(F)cc4[nH]3)cc2)c1
3. N#Cc1ccccc1-c1ccc(C(=C2CCN(CC3CC3)CC2)c2nc3cc(C(F)(F)F)c(F)cc3[nH]2)cc1
4. CCN(CC)CCN1CCC2(CC1)CC2(c1ccc(-c2cccc(C#N)c2)cc1)c1nc2cc(F)c(C(F)(F)F)cc2[nH]1 (stereo not drawn)

Key:
[41, 52, 464, 15]

###

TARGET_ENTITY: UniProt:Q969V1
Sequence (Q969V1 whole entry): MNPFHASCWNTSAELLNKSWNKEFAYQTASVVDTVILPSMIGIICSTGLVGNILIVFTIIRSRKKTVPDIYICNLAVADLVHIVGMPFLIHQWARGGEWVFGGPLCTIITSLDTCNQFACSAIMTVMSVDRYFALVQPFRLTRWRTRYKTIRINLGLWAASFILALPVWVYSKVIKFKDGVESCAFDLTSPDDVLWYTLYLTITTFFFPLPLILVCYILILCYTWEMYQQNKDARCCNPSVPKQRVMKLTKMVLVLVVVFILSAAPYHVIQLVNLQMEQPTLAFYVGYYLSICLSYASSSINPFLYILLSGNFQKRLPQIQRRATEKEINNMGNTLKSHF
MEASUREMENT_DESCRIPTION: Binding affinity to human MCHR2 assessed as inhibition of MCH-mediated calcium ion influx by FLIPR assay
Type: functional
For each record, write down the corresponding Activity.

Some solved entries appear below for comparison.
> print(dat)
                                   compound  result
1  N#Cc1cccc(-c2ccc(C(=C3CCN(Cc4nccs4)CC3)c3nc4cc(C(F)(F)F)c(F)cc4[nH]3)cc2)c1  > 3 µM
2  CN(C)C(=O)N1CCC2(CC1)CC2(c1ccc(-c2cccc(C#N)c2)cc1)c1nc2cc(F)c(C(F)(F)F)cc2[nH]1 (stereo not drawn)  > 3 µM
3  N#Cc1cncc(-c2ccc(C(=C3CCN(CC4CC4)CC3)c3nc4cc(C(F)(F)F)c(F)cc4[nH]3)cc2)c1  > 3 µM
4  N#Cc1cccc(-c2ccc(C3(c4nc5cc(C(F)(F)F)c(F)cc5[nH]4)CC34CCNCC4)cc2)c1 (stereo not drawn)  > 3 µM
5  N#CCc1cccc(-c2ccc(C(=C3CCN(CC4CC4)CC3)c3nc4cc(C(F)(F)F)c(F)cc4[nH]3)cc2)c1  > 3 µM
6  Oc1ccc(-c2ccc(C(=C3CCN(CC4CC4)CC3)c3nc4cc(F)c(C(F)(F)F)cc4[nH]3)cc2)cn1  > 3 µM

Each of the following entries comes with a recorded value; kindly state Activity for each.
1. N#Cc1cccc(-c2ccc(C3(c4nc5cc(C(F)(F)F)c(F)cc5[nH]4)CC34CCN(C(=O)N3CCCC3)CC4)cc2)c1 (stereo not drawn)
2. N#Cc1cccc(-c2ccc(C3(c4nc5cc(C(F)(F)F)c(F)cc5[nH]4)CC34CCN(CC3CC3)CC4)cc2)c1 (stereo not drawn)

Key:
1. > 3 µM
2. > 3 µM

###

Reported Ki, Melanin-concentrating hormone receptor 1 (Homo sapiens, UniProt Q99705).
In your response, the unit should come after the numeric value.

Some solved entries appear below for comparison.
> print(dat)
                      smiles.representation  result
1  N#Cc1c[nH]c(=O)c(-c2ccc(C(=C3CCN(CC4CC4)CC3)c3nc4cc(C(F)(F)F)c(F)cc4[nH]3)cc2)c1   99 nM
2  NC(=O)c1cccc(-c2ccc(C(=C3CCN(CC4CC4)CC3)c3nc4cc(C(F)(F)F)c(F)cc4[nH]3)cc2)c1   77 nM
3  Oc1ccc(-c2ccc(C(=C3CCN(CC4CC4)CC3)c3nc4cc(F)c(C(F)(F)F)cc4[nH]3)cc2)cn1  174 nM
4  N#Cc1ccc(F)c(-c2ccc(C(=C3CCN(CC4CC4)CC3)c3nc4cc(C(F)(F)F)c(F)cc4[nH]3)cc2)c1  3.9 nM
5  N#CCc1cccc(-c2ccc(C(=C3CCN(CC4CC4)CC3)c3nc4cc(C(F)(F)F)c(F)cc4[nH]3)cc2)c1   26 nM

Each of the following entries comes with a recorded value; kindly state Ki for each.
1. N#Cc1cccc(-c2ccc(C(=C3CCN(Cc4nccs4)CC3)c3nc4cc(C(F)(F)F)c(F)cc4[nH]3)cc2)c1
2. CS(=O)(=O)N1CCC(=C(c2ccc(-c3cccc(C#N)c3)cc2)c2nc3cc(F)c(C(F)(F)F)cc3[nH]2)CC1

Key:
1: 45 nM; 2: 71.4 nM

###

TARGET_ENTITY: Melanin-concentrating hormone receptor 1 (Homo sapiens)
Sequence (Q99705 whole entry): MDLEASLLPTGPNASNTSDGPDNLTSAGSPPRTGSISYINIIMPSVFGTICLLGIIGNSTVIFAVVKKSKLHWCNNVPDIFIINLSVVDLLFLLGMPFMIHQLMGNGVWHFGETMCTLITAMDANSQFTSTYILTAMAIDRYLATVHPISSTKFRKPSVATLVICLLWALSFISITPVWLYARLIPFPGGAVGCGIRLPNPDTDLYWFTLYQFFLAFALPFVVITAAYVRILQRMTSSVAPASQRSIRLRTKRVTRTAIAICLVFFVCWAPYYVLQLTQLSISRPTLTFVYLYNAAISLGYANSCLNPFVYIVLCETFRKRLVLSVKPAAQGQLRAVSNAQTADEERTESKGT
MEASURED_QUANTITY: pKi
Numbers only, as −log10 of the molar value.

Some solved entries appear below for comparison.
> print(dat)
                                   molecule  measured.quantity  readout.number
1  N#Cc1cccc(-c2ccc(C(=C3CCN(CC4CC4)CC3)c3nc4cc(Cl)c(Cl)cc4[nH]3)cc2)c1                pKi            7.82
2  N#Cc1cncc(-c2ccc(C(=C3CCN(CC4CC4)CC3)c3nc4cc(C(F)(F)F)c(F)cc4[nH]3)cc2)c1                pKi            7.99

Each of the following entries comes with a recorded value; kindly state pKi for each.
1. CN(C)C(=O)N1CCC(=C(c2ccc(-c3cccc(C#N)c3)cc2)c2nc3cc(F)c(C(F)(F)F)cc3[nH]2)CC1
2. CN(C)C(=O)N1CCC2(CC1)CC2(c1ccc(-c2cccc(C#N)c2)cc1)c1nc2cc(F)c(C(F)(F)F)cc2[nH]1 (centres undefined)

Key:
1: 7.43; 2: 7.49

###

TARGET_ENTITY: Melanin-concentrating hormone receptor 1 (Mus musculus) (UniProt Q8JZL2)
Sequence (Q8JZL2 whole entry): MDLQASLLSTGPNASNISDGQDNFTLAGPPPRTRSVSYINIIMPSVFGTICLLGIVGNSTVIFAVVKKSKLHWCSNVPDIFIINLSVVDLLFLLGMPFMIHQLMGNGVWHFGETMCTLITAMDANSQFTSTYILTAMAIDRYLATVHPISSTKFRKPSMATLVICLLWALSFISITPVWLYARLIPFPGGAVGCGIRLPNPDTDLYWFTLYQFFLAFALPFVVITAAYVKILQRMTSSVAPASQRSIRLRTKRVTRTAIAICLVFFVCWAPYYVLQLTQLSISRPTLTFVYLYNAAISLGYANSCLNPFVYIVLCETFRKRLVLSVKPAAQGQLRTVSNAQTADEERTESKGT
MEASUREMENT_DESCRIPTION: Inhibition of MCH-ADO binding to mouse brain at 30 mg/kg, po after 6 hrs
Assay type: functional, organism-based
Design: dose 30 mg/kg
For each record, write down the corresponding inhibition.
Numbers only, in %.

Some solved entries appear below for comparison.
> print(dat)
                                   compound  readout.number
1  CN(C)C(=O)N1CCC(=C(c2ccc(-c3cccc(C#N)c3)cc2)c2nc3cc(F)c(C(F)(F)F)cc3[nH]2)CC1              50
2  N#Cc1cccc(-c2ccc(C(=C3CCN(CC4CC4)CC3)c3nc4cc(C(F)(F)F)c(F)cc4[nH]3)cc2)c1              96
3  CC(=O)N1CCC(=C(c2ccc(-c3cccc(C#N)c3)cc2)c2nc3cc(F)c(C(F)(F)F)cc3[nH]2)CC1              48
4  N#Cc1cccc(-c2ccc(C3(c4nc5cc(C(F)(F)F)c(F)cc5[nH]4)CC34CCN(CC3CC3)CC4)cc2)c1 (stereo unspecified)              74
5  N#Cc1cccc(-c2ccc(C(=C3CCN(CC4CC4)CC3)c3nc4cc(Cl)c(Cl)cc4[nH]3)cc2)c1              68

Exercise: Recorded inhibition for `N#Cc1ccc(F)c(-c2ccc(C(=C3CCN(CC4CC4)CC3)c3nc4cc(F)c(C(F)(F)F)cc4[nH]3)cc2)c1` , please?
Key: 92
